- TEST_TARGET: T1, Dpo4 (SsoDpo4, Y-family DNA polymerase) (Sulfolobus solfataricus, UniProt Q97W02 1-352)
- T1 sequence: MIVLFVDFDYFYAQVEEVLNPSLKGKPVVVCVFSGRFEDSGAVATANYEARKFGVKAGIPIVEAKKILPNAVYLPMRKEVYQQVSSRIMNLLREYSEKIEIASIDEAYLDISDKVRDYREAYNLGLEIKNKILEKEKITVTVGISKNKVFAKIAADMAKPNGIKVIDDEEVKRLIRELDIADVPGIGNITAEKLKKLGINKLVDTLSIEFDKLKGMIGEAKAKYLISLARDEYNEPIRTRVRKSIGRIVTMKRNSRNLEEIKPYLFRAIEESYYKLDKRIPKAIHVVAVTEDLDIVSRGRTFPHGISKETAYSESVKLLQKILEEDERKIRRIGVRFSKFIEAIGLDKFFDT
- PROTOCOL_TEXT: fluorescence anisotropy
REPORTED_PROPERTY: pKd
Numbers only, as −log10 of the molar value.

Lab note: measured pKd of TTTTTTTTTTCCCGGGCCGGCGTTTCGCCGGCCCGGG (structured_DNA) [37-nt hairpin primer-template, 5'-Cy3] was 6.79
